- Read-out: Peroxisomal acyl-coenzyme A oxidase 1 (ACOX1) gene, ACOX1 (gene 51)
- Experiment notes: LTEA_HepaRG_ACOX1: Life Technologies and Expression Analysis (LTEA) Assay for Peroxisomal acyl-coenzyme A oxidase 1 (ACOX1) gene using HepaRG (AID 2283467)
- Conditions: mRNA level, 48 h; actives raise or lower the signal
Calls of active or inactive are those of the source. Rule for the calls: active = hit-call score of the fitted dose curve at least 0.9, where 1 is the maximum; inactive = score below 0.9.
Parameter call: string, one of active, inactive

Worked set:
CCCCc1oc2ccccc2c1C(=O)c1cc(I)c(OCCN(CC)CC)c(I)c1 = inactive
O=C(CCCN1CCC(O)(c2ccc(Cl)cc2)CC1)c1ccc(F)cc1 = active
N=C(N)c1ccc(OCCCCCOc2ccc(C(=N)N)cc2)cc1 = active
CN(C)CCOC(c1ccccc1)c1ccccc1 = inactive
CCCCC(CC)C(=O)O (stereo not given) = inactive

Q) Name the outcome recorded for `CCCCC=O` in the assay.
A) inactive

Q) Just curious, what result did `O=C1NS(=O)(=O)c2ccccc21` get here?
A) inactive

Q) Lab log entry: `CCCCCCCCCCCCCCC` — outcome as called in the assay?
A) inactive

Q) Answer briefly: the call reported for `CCCCCCCCCCCCOS(=O)(=O)O` in this assay.
A) inactive

Q) Could you kindly confirm the outcome this assay logged for `O=C(c1ccccc1)c1ccccc1` ?
A) inactive

###

- Experiment notes: APR_HepG2_CellLoss_72hr: Apredica 72-hour HepG2 Assay for Cell Loss (AID 2282915)
- Conditions: high-content imaging
Activity calls are given as the source filed them. How the source made its calls: active means hit-call score of the fitted dose curve at least 0.9, where 1 is the maximum; inactive means score below 0.9.
A correct response names exactly one class from active, inactive

Below are worked cases with known answers.
CS(=O)(=O)c1ccc([C@@H](CC2CCCC2)C(=O)Nc2cnccn2)cc1Cl = inactive
O=C1NS(=O)(=O)c2ccccc21 = inactive
CCCCCCCCCCCCCCC = inactive
N=C(N)c1ccc(OCCCCCOc2ccc(C(=N)N)cc2)cc1 = active
OCC(CO)(CBr)CBr = inactive
CCCCc1oc2ccccc2c1C(=O)c1cc(I)c(OCCN(CC)CC)c(I)c1 = active
O=C(CCCN1CCC(O)(c2ccc(Cl)cc2)CC1)c1ccc(F)cc1 = active
CCCCC(CC)C(=O)O (centres undefined) = inactive

Let's switch to this compound now.
Q) Given `Cc1[nH]nc2c1N=C(c1ccccc1Cl)c1cc([N+](=O)[O-])ccc1N2` , state the outcome it received in this test.
A) active

###

- Experiment notes: CCTE_Simmons_CellTiterGLO_HEK293T: Viability Assessment in CCTE's Assays for Thyroperoxidase (TPO) Inhibition, Simmons Lab (AID 2283665)
Results filed as inconclusive are left out. Active and inactive are the calls of the source. How the source made its calls: active means hit-call score of the fitted dose curve at least 0.9, where 1 is the maximum; inconclusive means response in the unintended direction; inactive means score below 0.9.
Select the matching outcome among active, inactive

Worked cases, answers included:
CCc1cccc(CC)c1N(COC)C(=O)CS(=O)(=O)O = inactive
NC(=NCCCCCCN=C(N)/N=C(\N)Nc1ccc(Cl)cc1)/N=C(\N)Nc1ccc(Cl)cc1 = active
CCCCCCCCCCCCOC(=O)c1cc(O)c(O)c(O)c1 = active
Cc1cc(C(C)(C)C)c(O)c(C(C)(C)C)c1 = active

# next molecule below
Q) What classification did `CCCCCCCCCCCC` end up with in this test?
A) active

###

- Experiment notes: ATG_ERE_CIS: Attagene CIS-FACTORIAL HepG2 Assay for Estrogen Response Element (ERE) (AID 2282940)
- Conditions: HepG2 ERE cis-reporter, Attagene RNA transcript; actives raise or lower the signal
- Procedure: ATG_CIS is a cell-based, multiplexed-readout assay that uses HepG2, a human liver cell line, with measurements taken at 24 hours after chemical dosing in a 24-well plate.ATG_ERE_CIS is one of 52 assay component(s) measured or calculated from the ATG_CIS assay. […] This assay endpoint, ATG_ERE_CIS, was analyzed with bidirectional fitting relative to DMSO as the negative control and baseline of activity. […]
Activity calls are given as the source filed them. Rule for the calls: active = hit-call score of the fitted dose curve at least 0.9, where 1 is the maximum; inactive = score below 0.9.
Select the correct class. Options are active, inactive and nothing else.

Would you please look over these solved cases?
C=COC(=O)C(C)(C)CCCCCC = active
Cc1ccccc1C(OCCN(C)C)c1ccccc1 (centres undefined) = inactive
O=C(F)C(F)(F)C(F)(F)C(F)(F)C(F)F = inactive

Q) Field: outcome | Entry: COC(O)c1ccccc1 (centres undefined)
A) active

Q) Hello, I am checking results. What call was entered for `Cc1cncc(C)c1` ?
A) inactive

Q) // param item: `CCCCCCCCCCCCCC[n+]1ccccc1` ; yields the recorded call
A) inactive

Q) Just curious, what result did `CC=O` get here?
A) inactive

Q) Which outcome did this test record for the compound OCC1CCC(CO)CC1 (centres undefined) ?
A) active

Q) Dear colleague, could you share the recorded outcome for `CC(=O)Nc1ccc(S(N)(=O)=O)cc1` when you have a moment?
A) inactive

###

- Experiment notes: ATG_Sox_CIS: Attagene CIS-FACTORIAL HepG2 Assay for human SRY-box transcription factor (SOX) (AID 2282960)
- Conditions: HepG2 Attagene cis-factorial SOX reporter, mRNA; actives raise or lower the signal
Calls of active or inactive are those of the source. Rule for the calls: active = hit-call score of the fitted dose curve at least 0.9, where 1 is the maximum; inactive = score below 0.9.
Respond using exactly one of the listed classes: YES = active, NO = inactive

Some solved cases for reference:
NC(C(F)(F)F)C(F)(F)F = NO
CCOC(=O)CN[C@@H](C(=O)N1CC[C@H]1C(=O)NCc1ccc(/C(N)=N/O)cc1)C1CCCCC1 = NO
CCCCCCCCC(C)=O = NO
Clc1ccc(Nc2nnc(Cc3ccncc3)c3ccccc23)cc1 = NO
CC1=CC(=O)c2ccccc2C1=O = NO

Q) Lab log entry: `O=CC(F)(F)C(F)(F)C(F)(F)C(F)F` — outcome as called in the assay?
A) NO

Q) Given `CC(C)[C@@H]1CC[C@@H](C)C[C@H]1O` , state the outcome it received in this test.
A) NO

Q) How was `Oc1cc2ccccc2cc1O` classified in this test?
A) NO

Q) Please state the recorded outcome for this compound: `C=COC(=O)C(C)(C)CCCCCC`
A) NO

Q) Test call for this compound, please: `O=C1NS(=O)(=O)c2ccccc21`
A) NO

Q) Give the logged outcome of this assay for the following compound: `CCc1cccc(CC)c1NC(=O)C(=O)O`
A) NO

Q) Per the records of this test, what outcome belongs to `Cn1sccc1=O` ?
A) YES

Q) State the result this test recorded for COC(=O)CC(C(C)=O)C(=O)OC (centres undefined) .
A) NO

###

- Study target: human Thyroid Receptor alpha (THRa1), THRA (gene 7067)
- Experiment notes: ATG_THRa1_TRANS: Attagene TRANS-FACTORIAL HepG2 Assay for human Thyroid Receptor alpha (THRa1) (AID 2283014)
- Procedure: ATG_TRANS is a cell-based, multiplexed-readout assay that uses HepG2, a human liver cell line, with measurements taken at 24 hours after chemical dosing in a 24-well plate.ATG_THRa1_TRANS is one of 30 assay component(s) measured or calculated from the ATG_TRANS assay. […] This assay endpoint, ATG_THRa1_TRANS, was analyzed in the positive analysis fitting direction relative to DMSO as the negative control and baseline of activity. […]
Results filed as inconclusive are left out. The source made the active and inactive calls. How the source made its calls: active means hit-call score of the fitted dose curve at least 0.9, where 1 is the maximum; inconclusive means response in the unintended direction; inactive means score below 0.9.
Please state which outcome applies, choosing from active, inactive

O=C1Cc2ccccc2N1c1c(Cl)cccc1Cl = inactive

Q) I'd appreciate the recorded outcome for `CS(=O)(=O)c1ccc([C@@H](CC2CCCC2)C(=O)Nc2cnccn2)cc1Cl` from this test.
A) inactive

Q) Which result was noted for this compound in the test: `CCCCCCc1ccc(N)cc1`
A) inactive

Q) Given CC(O)COc1ccccc1 (configuration not stated) , state the outcome it received in this test.
A) inactive

Q) Assay result, entry `O=C(Nc1cccc([N+](=O)[O-])c1)c1cc2ccccc2cc1O` — outcome?
A) active

Q) What is the recorded call for this compound in the test? CC(C)(C)C1CCCCC1O (configuration not stated)
A) inactive

Q) Which result was noted for this compound in the test: `Oc1ccc(Cc2ccccc2O)cc1`
A) inactive

###

- Experiment notes: BSK_LPS_SRB: Viability Assessment in the BioMAP Diversity Plus: LPS Assay (AID 2283079);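 note: total protein by sulforhodamine B absorbance as a cytotoxicity measure; measured one day after compound addition; fitted in both directions against DMSO so loss or gain of signal counts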
- Conditions: primary human HUVEC with PBMC
Activity calls are given as the source filed them. The calls were made as follows: active = hit-call score of the fitted dose curve at least 0.9, where 1 is the maximum; inactive = score below 0.9.
Give your call using only these classes: active, inactive

Check out these entries, answers already filled in.
C=CC(=O)OCCC(F)(F)C(F)(F)C(F)(F)C(F)(F)C(F)(F)C(F)(F)C(F)(F)C(F)(F)F = inactive
O=C(NCc1ncc(C(F)(F)F)cc1Cl)c1c(Cl)cccc1Cl = inactive
CCCCCc1ccc(O)cc1 = active
Cc1cccc2c1ccc1ccccc12 = inactive

With those in mind, consider the next compound.
Q) How did this test come out for `CCCCCCCCCCCCCCCCCC[N+](C)(C)Cc1ccccc1` ?
A) active

###

- Read-out: Actin alpha 1 (ACTA1), ACTA1 (gene 58)
- Experiment notes: BSK_MyoF_ACTA1: BioMAP Diversity Plus: MyoF Assay for Actin alpha 1 (ACTA1) Biomarker Activity (AID 2284244)
- Conditions: primary human lung fibroblasts
The source made the active and inactive calls. How the source made its calls: active means hit-call score of the fitted dose curve at least 0.9, where 1 is the maximum; inactive means score below 0.9.
In this exercise, the only acceptable responses are active, inactive

Please review the entries below; each comes with its answer.
COc1cccc(O)c1 = inactive
O=P(O)(O)CCC(F)(F)C(F)(F)C(F)(F)C(F)(F)C(F)(F)C(F)(F)C(F)(F)C(F)(F)F = inactive
O=C(O)CCC(F)(F)C(F)(F)C(F)(F)C(F)(F)C(F)(F)F = inactive
Cc1ccc(N=Nc2c(O)ccc3ccccc23)c(C)c1 = inactive
C[C@]12CC[C@@H]3c4ccc(O)cc4CC[C@H]3[C@@H]1C[C@@H](O)[C@@H]2O = inactive

Okay, next one:
Q) Record lookup: outcome of this test for `C=CC(=O)OCCC(F)(F)C(F)(F)C(F)(F)C(F)(F)C(F)(F)C(F)(F)C(F)(F)C(F)(F)F` ?
A) inactive
